Values compiled from paper PMC8869984.

Please go through the items and note down their MBC.
System: P. aeruginosa ATCC 9027
test-details: micro-dilution broth method (MIC, MBC)
Assay type: cell-based, Pseudomonas aeruginosa
conditions-used: P. aeruginosa ATCC 9027, value in brackets

Prompt line: Which measured MBC value corresponds to O=S(=O)([O-])[O-].[Ag+].[Ag+] [Ag2SO4, silver sulfate] ?
Response line: 0.4 µM/mL

Prompt line: Continue with Cc1ncc([N+](=O)[O-])n1CCO
Response line: > 5.85 µM/mL

Prompt line: Continue with Cc1ncc([N+](=O)[O-])n1CCO.Cc1ncc([N+](=O)[O-])n1CCO.O=[N+]([O-])[O-].[Ag+] [[Ag(MTZ)2NO3]]
Response line: 0.049 µM/mL

Prompt line: Continue with O=[N+]([O-])[O-].[Ag+] [AgNO3, Silver nitrate]
Response line: 0.025 µM/mL

Prompt line: Continue with Cc1ncc([N+](=O)[O-])n1CCO.Cc1ncc([N+](=O)[O-])n1CCO.Cc1ncc([N+](=O)[O-])n1CCO.Cc1ncc([N+](=O)[O-])n1CCO.O=S(=O)([O-])[O-].[Ag+].[Ag+] [[Ag(MTZ)2]2SO4]
Response line: 0.014 µM/mL
